Where do these numbers come from? They come from patent US20070129419A1.

Biological target: recombinant human SERT (Homo sapiens, UniProt P31645)
Construct: expressed in transfected cells; membrane preparation
Sequence (P31645 whole entry): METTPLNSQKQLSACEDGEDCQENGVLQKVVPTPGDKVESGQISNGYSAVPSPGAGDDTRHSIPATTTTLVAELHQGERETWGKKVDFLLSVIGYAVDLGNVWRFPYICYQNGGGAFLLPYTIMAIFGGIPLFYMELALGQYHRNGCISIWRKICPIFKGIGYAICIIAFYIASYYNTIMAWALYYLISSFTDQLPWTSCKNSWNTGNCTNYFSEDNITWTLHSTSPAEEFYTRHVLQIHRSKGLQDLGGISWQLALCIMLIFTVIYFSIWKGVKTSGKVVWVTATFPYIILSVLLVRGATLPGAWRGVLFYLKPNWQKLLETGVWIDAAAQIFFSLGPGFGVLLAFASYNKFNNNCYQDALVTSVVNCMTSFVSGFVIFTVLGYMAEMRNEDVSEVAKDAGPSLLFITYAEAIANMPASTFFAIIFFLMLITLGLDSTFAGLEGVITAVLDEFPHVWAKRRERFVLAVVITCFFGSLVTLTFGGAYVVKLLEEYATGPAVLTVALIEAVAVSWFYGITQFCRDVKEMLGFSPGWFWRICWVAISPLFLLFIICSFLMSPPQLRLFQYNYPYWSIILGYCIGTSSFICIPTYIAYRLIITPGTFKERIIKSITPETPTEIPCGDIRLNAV
Assay: hSERT SPA binding assay ([3H]citalopram displacement, HEK-293 membranes)
Details: [3H]citalopram 1 nM, HEK-293 membranes expressing human SERT; read-out: pKi hSERT (converted)
quantity: Ki (nM)
The reply should contain only the number, in nM.

> print(dat)
                                   compound  value.observed
1  FC(F)(F)c1cc(COC[C@H]2CNC[C@H]2c2ccccc2)cc(C(F)(F)F)c1             4.9
2  COc1cc(COC[C@H]2CNC[C@H]2c2ccccc2)cc(OC)c1            20.4
3  CN(Cc1cc(C(F)(F)F)cc(C(F)(F)F)c1)C[C@H]1CNC[C@H]1c1ccccc1            8.13
4  Brc1cc(Br)cc(COC[C@H]2CNCC2c2ccccc2)c1 (some centres unmarked)            5.89

Looking up FC(F)(F)c1cc(CNC[C@H]2CNC[C@H]2c2ccccc2)cc(C(F)(F)F)c1 , I found its Ki recorded as 22.9

###

Target: human NK-1 receptor (Homo sapiens, UniProt P25103)
Construct: expressed in transfected cells; host or cells: CHO cells, Semliki virus expression system; membrane suspension
Sequence (P25103 whole entry): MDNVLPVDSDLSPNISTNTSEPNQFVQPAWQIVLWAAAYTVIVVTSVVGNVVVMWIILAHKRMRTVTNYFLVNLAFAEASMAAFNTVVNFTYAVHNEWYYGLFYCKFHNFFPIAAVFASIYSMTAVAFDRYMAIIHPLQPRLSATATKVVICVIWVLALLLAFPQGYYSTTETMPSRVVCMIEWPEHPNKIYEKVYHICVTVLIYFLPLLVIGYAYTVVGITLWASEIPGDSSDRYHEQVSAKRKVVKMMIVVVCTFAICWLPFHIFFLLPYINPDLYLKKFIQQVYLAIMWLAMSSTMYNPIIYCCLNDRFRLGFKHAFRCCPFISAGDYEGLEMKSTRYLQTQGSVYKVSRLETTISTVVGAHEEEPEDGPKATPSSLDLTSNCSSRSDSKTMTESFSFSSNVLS
Assay: hNK-1 binding assay ([3H]substance P displacement, CHO cells)
Conditions: [3H]substance P 0.6 nM, CHO cells transfected with human NK-1 receptor; read-out: pKi hNK1 (converted)
quantity: Ki (nM)
Please give a number only; it is taken to be in nM.

Given item Fc1ccc([C@@H]2CNC[C@@H]2COCc2cc(C(F)(F)F)cc(C(F)(F)F)c2)cc1 [1 of I] , the value recorded as its Ki is 295

The compound identified as FC(F)(F)c1cccc(COC[C@H]2CNC[C@H]2c2ccccc2)c1 [12 of I] registered its Ki at 676

Query FC(F)(F)c1cc(COC[C@H]2CNC[C@H]2c2ccccc2)cc(C(F)(F)F)c1 [8 of I] yields Ki of 43.7

###

Consider the following molecules and their measured log10 of Ki readings.
Molecular target: human NK-1 receptor (Homo sapiens, UniProt P25103)
Construct: expressed in transfected cells; host or cells: CHO cells, Semliki virus expression system; membrane suspension
Experiment: hNK-1 binding assay ([3H]substance P displacement, CHO cells)
Settings: [3H]substance P 0.6 nM, CHO cells transfected with human NK-1 receptor; read-out: pKi hNK1 (converted)
// stored as log10 of Ki expressed in nM

> print(dat)
                                   molecule                         system.under.test  value.observed
1  Fc1cccc([C@@H]2CNC[C@@H]2COCc2cc(C(F)(F)F)cc(C(F)(F)F)c2)c1 [2 of I]  human NK-1 receptor (Homo sapiens, UniProt P25103)            1.67
2  Cc1ccccc1[C@@H]1CNC[C@@H]1COCc1cc(C(F)(F)F)cc(C(F)(F)F)c1 [7 of I]  human NK-1 receptor (Homo sapiens, UniProt P25103)            1.46
3  FC(F)(F)c1ccccc1COC[C@H]1CNC[C@H]1c1ccccc1 [15 of I]  human NK-1 receptor (Homo sapiens, UniProt P25103)            2.81
4  FC(F)(F)c1cc(COC[C@H]2CNC[C@H]2c2ccc(Cl)cc2)cc(C(F)(F)F)c1 [4 of I]  human NK-1 receptor (Homo sapiens, UniProt P25103)            1.73
5  Fc1ccccc1[C@@H]1CNC[C@@H]1COCc1cc(C(F)(F)F)cc(C(F)(F)F)c1 [3 of I]  human NK-1 receptor (Homo sapiens, UniProt P25103)            1.70
6  FC(F)(F)c1cc(CNC[C@H]2CNC[C@H]2c2ccccc2)cc(C(F)(F)F)c1 [16 of I]  human NK-1 receptor (Homo sapiens, UniProt P25103)            1.42

The molecule Brc1cc(Br)cc(COC[C@H]2CNCC2c2ccccc2)c1 (some centres unmarked) [9 of I] , when measured on human NK-1 receptor (Homo sapiens, UniProt P25103), yielded log10 of Ki of 1.62

Reported human NK-1 receptor (Homo sapiens, UniProt P25103) log10 of Ki for item Cc1cc(C)cc(COC[C@H]2CNC[C@H]2c2ccccc2)c1 [10 of I] was 2.41

###

Target: recombinant human SERT (Homo sapiens)
Construct: expressed in transfected cells; membrane preparation
Test: hSERT SPA binding assay ([3H]citalopram displacement, HEK-293 membranes)
Settings: [3H]citalopram 1 nM, HEK-293 membranes expressing human SERT; read-out: pKi hSERT (converted)
quantity: Ki
Quick note: number first, unit second.

Here's what some known entries look like.
> print(dat)
                                   compound  value.observed
1  Cc1cc(C)cc(COC[C@H]2CNC[C@H]2c2ccccc2)c1 [10 of I]         4.57 nM
2  Cc1ccccc1[C@@H]1CNC[C@@H]1COCc1cc(C(F)(F)F)cc(C(F)(F)F)c1 [7 of I]         7.59 nM
3  FC(F)(F)c1cc(COC[C@H]2CNC[C@H]2c2ccccc2Cl)cc(C(F)(F)F)c1 [6 of I]         10.2 nM
4  FC(F)(F)c1ccccc1COC[C@H]1CNC[C@H]1c1ccccc1 [15 of I]         70.8 nM
5  FC(F)(F)c1cccc(COC[C@H]2CNC[C@H]2c2ccccc2)c1 [12 of I]           11 nM

The record that follows has no Ki shown yet.
Please fill in: Ki reported for Fc1ccccc1[C@@H]1CNC[C@@H]1COCc1cc(C(F)(F)F)cc(C(F)(F)F)c1 [3 of I] = 3.47 nM

###

Target: human NK-1 receptor (Homo sapiens, UniProt P25103)
Construct: expressed in transfected cells; host or cells: CHO cells, Semliki virus expression system; membrane suspension
Test: hNK-1 binding assay ([3H]substance P displacement, CHO cells)
Details: [3H]substance P 0.6 nM, CHO cells transfected with human NK-1 receptor; read-out: pKi hNK1 (converted)
Method: The affinity of test compounds for the NK-1 receptor was evaluated at human NK-1 receptors in CHO cells transfected with the human NK-1 receptor using the Semliki virus expression system and radiolabelled with [^3H]substance P (final concentration 0.6 nM). […] The inhibition dissociation constant (Ki) of each compound for NK1 is determined as described above for hSERT.
Recorded measurements of Ki, one per entry
Quick note: give the figure in nM, leave out the unit.

Examples with answers:
> print(dat)
                                   molecule                         system.under.test  quantity  value.observed
1  Fc1cc(COC[C@H]2CNC[C@H]2c2ccccc2)cc(C(F)(F)F)c1 [11 of I]  human NK-1 receptor (Homo sapiens, UniProt P25103)        Ki             224
2  CN(Cc1cc(C(F)(F)F)cc(C(F)(F)F)c1)C[C@H]1CNC[C@H]1c1ccccc1 [17 of I]  human NK-1 receptor (Homo sapiens, UniProt P25103)        Ki            31.6
3  FC(F)(F)Oc1cccc(COC[C@H]2CNC[C@H]2c2ccccc2)c1 [13 of I]  human NK-1 receptor (Homo sapiens, UniProt P25103)        Ki             759

The observed Ki for FC(F)(F)c1cc(COC[C@H]2CNC[C@H]2c2cccc(Cl)c2)cc(C(F)(F)F)c1 [5 of I] when tested with human NK-1 receptor (Homo sapiens, UniProt P25103) stands at 31.6

Recorded Ki for COc1cc(COC[C@H]2CNC[C@H]2c2ccccc2)cc(OC)c1 [14 of I] on human NK-1 receptor (Homo sapiens, UniProt P25103) was 741

// Ki (human NK-1 receptor (Homo sapiens, UniProt P25103)) for FC(F)(F)c1cc(COC[C@H]2CNC[C@H]2c2ccccc2Cl)cc(C(F)(F)F)c1 [6 of I] = 43.7

###

Target: recombinant human SERT (Homo sapiens)
Construct: expressed in transfected cells; membrane preparation
Experiment: hSERT SPA binding assay ([3H]citalopram displacement, HEK-293 membranes)
Settings: [3H]citalopram 1 nM, HEK-293 membranes expressing human SERT; read-out: pKi hSERT (converted)
quantity: Ki (nM)
Answer with a number only, understood to be in nM.

Example entries and their recorded answers appear below.
> print(dat)
                           smiles.structure  value.observed
1  FC(F)(F)Oc1cccc(COC[C@H]2CNC[C@H]2c2ccccc2)c1            13.8
2  Fc1cccc([C@@H]2CNC[C@@H]2COCc2cc(C(F)(F)F)cc(C(F)(F)F)c2)c1            5.89
3  FC(F)(F)c1cc(COC[C@H]2CNC[C@H]2c2cccc(Cl)c2)cc(C(F)(F)F)c1            8.13

Test item Fc1cc(COC[C@H]2CNC[C@H]2c2ccccc2)cc(C(F)(F)F)c1 ; recombinant human SERT (Homo sapiens); reported Ki was 5.75

GET /values?item= FC(F)(F)c1cc(COC[C@H]2CNC[C@H]2c2ccc(Cl)cc2)cc(C(F)(F)F)c1 &system= recombinant human SERT (Homo sapiens) returns Ki: 4.47
